Assay: Half life in mouse at 25 mg/kg, po
Type: ADME, organism-based
Set-up: dose 25 mg/kg, route oral
Conditions: in vivo
Below is a list of entries, each paired with its recorded half-life value.
property_measured: half-life (h)

| given_smiles | recorded_number |
| --- | --- |
| Cc1cc(-c2c(Cl)cccc2Cl)cc2nnc(Nc3ccc(OCCN4CCCC4)cc3)nc12 | 8 |
| Cc1cccc(C)c1-c1cc(C)c2nc(Nc3ccc(OCCN4CCCC4)cc3)nnc2c1 | 9.5 |

====

Test system: CT26
Test: Antitumor activity against mouse CT26 cells
Assay type: functional, cell-based
pIC50: −log10 of the molar value.
property_measured: pIC50

| given_smiles | recorded_number |
| --- | --- |
| Cc1cccc(C)c1-c1cc(C)c2nc(Nc3ccc(N(CCN4CCCC4)C(=O)c4ccccc4)cc3)nnc2c1 | 5.62 |
| CCN(CC)CCOc1cccc(Nc2nnc3cc(-c4c(C)cccc4C)cc(C)c3n2)c1 | 5.60 |
| Cc1cccc(C)c1-c1cc(C)c2nc(Nc3ccc(OCCN4CCN(C)CC4)cc3)nnc2c1 | 5.18 |
| Cc1cccc(C)c1-c1cc(C)c2nc(Nc3ccc(OCCN4CCCC4)cc3)nnc2c1 | 5.64 |
| Cc1cc(-c2c(Cl)cccc2Cl)cc2nnc(Nc3ccc(OCCN4CCCC4)cc3)nc12 | 6.12 |
| Cc1cccc(C)c1-c1cc(C)c2nc(Nc3ccnc(OCCN4CCCC4)c3)nnc2c1 | 5.62 |
| Cc1cccc(C)c1-c1cc(C)c2nc(Nc3ccc(C(=O)NN4CCN(C)CC4)cc3)nnc2c1 | 5.17 |

====

Molecular target: Cytochrome P450 3A4 (Homo sapiens)
Sequence (P08684 whole entry): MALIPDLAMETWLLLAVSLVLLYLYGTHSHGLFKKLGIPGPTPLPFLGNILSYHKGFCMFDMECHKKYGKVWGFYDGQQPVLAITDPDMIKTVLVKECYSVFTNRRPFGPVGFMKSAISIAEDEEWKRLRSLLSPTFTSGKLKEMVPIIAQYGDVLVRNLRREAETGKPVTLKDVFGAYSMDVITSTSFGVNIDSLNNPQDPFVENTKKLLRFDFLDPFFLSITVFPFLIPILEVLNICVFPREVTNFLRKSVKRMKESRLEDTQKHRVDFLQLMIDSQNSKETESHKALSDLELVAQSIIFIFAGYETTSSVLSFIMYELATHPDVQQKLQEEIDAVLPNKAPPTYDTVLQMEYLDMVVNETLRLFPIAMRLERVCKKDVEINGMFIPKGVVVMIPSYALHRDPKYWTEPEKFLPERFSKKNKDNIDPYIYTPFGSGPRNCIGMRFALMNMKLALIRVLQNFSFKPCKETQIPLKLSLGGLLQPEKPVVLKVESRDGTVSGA
pIC50: −log10 of the molar value.
property_measured: pIC50

| given_smiles | target_system | recorded_number |
| --- | --- | --- |
| Cc1cc(-c2c(Cl)cccc2Cl)cc2nnc(Nc3ccc(OCCN4CCCC4)cc3)nc12 | Cytochrome P450 3A4 (Homo sapiens) | 4.21 |

====

Biological target: UniProtKB P33261
Sequence (P33261 whole entry): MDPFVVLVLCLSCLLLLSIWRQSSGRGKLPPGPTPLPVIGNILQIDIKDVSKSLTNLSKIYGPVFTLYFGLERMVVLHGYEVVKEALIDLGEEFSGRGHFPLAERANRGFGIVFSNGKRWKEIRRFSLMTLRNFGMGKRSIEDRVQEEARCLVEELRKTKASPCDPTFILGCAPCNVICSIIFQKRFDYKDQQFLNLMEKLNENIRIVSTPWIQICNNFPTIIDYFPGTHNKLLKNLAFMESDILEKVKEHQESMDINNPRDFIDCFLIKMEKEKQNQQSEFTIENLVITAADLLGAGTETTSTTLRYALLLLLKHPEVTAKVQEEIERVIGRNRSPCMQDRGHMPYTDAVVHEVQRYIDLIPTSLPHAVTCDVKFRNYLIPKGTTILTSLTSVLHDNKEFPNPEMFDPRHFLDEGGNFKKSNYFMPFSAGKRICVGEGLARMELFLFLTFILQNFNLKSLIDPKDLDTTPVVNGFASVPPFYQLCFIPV
property_measured: IC50 (µM)

| given_smiles | property_measured | unit_info | recorded_number |
| --- | --- | --- | --- |
| Cc1cccc(C)c1-c1cc(C)c2nc(Nc3ccc(OCCN4CCCC4)cc3)nnc2c1 | IC50 | µM | 12 |

====

Target: Cytochrome P450 2C9 (Homo sapiens, UniProt P11712)
Sequence (P11712 whole entry): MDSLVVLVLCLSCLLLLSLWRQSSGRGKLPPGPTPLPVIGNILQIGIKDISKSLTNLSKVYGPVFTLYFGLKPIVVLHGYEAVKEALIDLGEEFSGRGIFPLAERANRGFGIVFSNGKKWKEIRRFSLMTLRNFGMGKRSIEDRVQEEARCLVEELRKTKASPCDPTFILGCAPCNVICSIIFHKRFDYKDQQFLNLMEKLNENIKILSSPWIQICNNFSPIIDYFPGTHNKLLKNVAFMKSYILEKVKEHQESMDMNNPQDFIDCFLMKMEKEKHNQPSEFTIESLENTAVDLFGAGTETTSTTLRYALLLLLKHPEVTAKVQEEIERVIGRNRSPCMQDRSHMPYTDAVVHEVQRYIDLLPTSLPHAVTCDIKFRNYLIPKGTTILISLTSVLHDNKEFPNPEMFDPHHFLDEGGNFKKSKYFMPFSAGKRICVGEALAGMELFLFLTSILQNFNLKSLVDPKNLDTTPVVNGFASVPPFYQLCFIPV
Assay: Inhibition of CYP2C9
Type: ADME
pIC50: −log10 of the molar value.

| given_smiles | pIC50 |
| --- | --- |
| Cc1cc(-c2c(Cl)cccc2Cl)cc2nnc(Nc3ccc(OCCN4CCCC4)cc3)nc12 | < 4.00 |

====

Below is a list of entries, each paired with its recorded AUC value.
Tested on: Rattus norvegicus
Assay: AUC in rat at 25 mg/kg, po
Format: ADME, organism-based, Plasma
Parameters: dose 25 mg/kg, route oral
Details: in vivo
property_measured: AUC (ng·h/mL)

| given_smiles | property_measured | unit_info | recorded_number |
| --- | --- | --- | --- |
| Cc1cccc(C)c1-c1cc(C)c2nc(Nc3ccc(OCCN4CCCC4)cc3)nnc2c1 | AUC | ng·h/mL | 9570 |
| Cc1cc(-c2c(Cl)cccc2Cl)cc2nnc(Nc3ccc(OCCN4CCCC4)cc3)nc12 | AUC | ng·h/mL | 8010 |

====

Assay: Tmax in dog at 25 mg/kg, po
Type: ADME, organism-based, Canis lupus familiaris
Parameters: dose 25 mg/kg, route oral
Details: in vivo

| given_smiles | Tmax |
| --- | --- |
| Cc1cc(-c2c(Cl)cccc2Cl)cc2nnc(Nc3ccc(OCCN4CCCC4)cc3)nc12 | 4 h |
| Cc1cccc(C)c1-c1cc(C)c2nc(Nc3ccc(OCCN4CCCC4)cc3)nnc2c1 | 1.5 h |

====

Experiment: Cmax in mouse at 25 mg/kg, po
Format: ADME, organism-based
Parameters: dose 25 mg/kg, route oral
Conditions: in vivo

| given_smiles | Cmax (ng/mL) |
| --- | --- |
| Cc1cccc(C)c1-c1cc(C)c2nc(Nc3ccc(OCCN4CCCC4)cc3)nnc2c1 | 790 |
| Cc1cc(-c2c(Cl)cccc2Cl)cc2nnc(Nc3ccc(OCCN4CCCC4)cc3)nc12 | 415 |

====

Assay: Clearance in mouse at 25 mg/kg, po
Assay type: ADME, organism-based
Design: dose 25 mg/kg, route oral
Conditions: in vivo
property_measured: CL/F (mL/min/kg)

| given_smiles | unit_info | recorded_number |
| --- | --- | --- |
| Cc1cc(-c2c(Cl)cccc2Cl)cc2nnc(Nc3ccc(OCCN4CCCC4)cc3)nc12 | mL/min/kg | 12.7 |
| Cc1cccc(C)c1-c1cc(C)c2nc(Nc3ccc(OCCN4CCCC4)cc3)nnc2c1 | mL/min/kg | 18.8 |

====

Assay: Cmax in dog at 25 mg/kg, po
Assay type: ADME, organism-based, Canis lupus familiaris
Design: dose 25 mg/kg, route oral
Conditions: in vivo

| given_smiles | Cmax, ng/mL |
| --- | --- |
| Cc1cccc(C)c1-c1cc(C)c2nc(Nc3ccc(OCCN4CCCC4)cc3)nnc2c1 | 5240 |
| Cc1cc(-c2c(Cl)cccc2Cl)cc2nnc(Nc3ccc(OCCN4CCCC4)cc3)nc12 | 679 |

====

Test system: HT-29
Experiment: Antitumor activity against HT29 cells
Type: functional, cell-based
Settings: Homo sapiens

| given_smiles | IC50 |
| --- | --- |
| Cc1cc(-c2c(Cl)cccc2Cl)cc2nnc(Nc3ccc(OCCN4CCCC4)cc3)nc12 | > 5 µM |

====

Tested on: MOLT-4
Assay: Antitumor activity against Molt4 cells
Assay type: functional, cell-based
Conditions: Homo sapiens
pIC50: −log10 of the molar value.
property_measured: pIC50

| given_smiles | recorded_number |
| --- | --- |
| Cc1cc(-c2c(Cl)cccc2Cl)cc2nnc(Nc3ccc(OCCN4CCCC4)cc3)nc12 | 6.60 |

====

System: A549
Assay: Antitumor activity against A549 cells
Format: functional, cell-based
Conditions: Homo sapiens
pIC50: −log10 of the molar value.

| given_smiles | pIC50 |
| --- | --- |
| Cc1cc(-c2c(Cl)cccc2Cl)cc2nnc(Nc3ccc(OCCN4CCCC4)cc3)nc12 | 6.05 |

====

A short record of IC50 observed with Proto-oncogene tyrosine-protein kinase Src (Homo sapiens, UniProt P12931) follows.
Sequence (P12931 2-536 limits assumed): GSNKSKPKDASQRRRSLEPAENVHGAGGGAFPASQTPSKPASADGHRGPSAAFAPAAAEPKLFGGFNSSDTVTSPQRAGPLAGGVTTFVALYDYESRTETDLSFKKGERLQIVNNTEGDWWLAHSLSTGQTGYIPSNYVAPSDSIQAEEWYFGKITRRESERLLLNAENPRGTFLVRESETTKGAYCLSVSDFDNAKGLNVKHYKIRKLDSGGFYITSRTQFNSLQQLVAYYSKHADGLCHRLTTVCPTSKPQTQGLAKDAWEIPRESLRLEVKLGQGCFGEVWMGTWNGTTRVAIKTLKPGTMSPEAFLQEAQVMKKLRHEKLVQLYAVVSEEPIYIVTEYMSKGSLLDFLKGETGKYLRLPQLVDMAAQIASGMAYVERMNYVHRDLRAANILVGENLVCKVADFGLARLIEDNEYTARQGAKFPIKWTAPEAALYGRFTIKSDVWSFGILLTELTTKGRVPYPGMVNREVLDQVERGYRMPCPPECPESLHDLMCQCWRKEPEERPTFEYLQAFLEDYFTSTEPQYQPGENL
property_measured: IC50 (nM)

| given_smiles | target_system | property_measured | qualifier_sign | recorded_number |
| --- | --- | --- | --- | --- |
| Cc1cccc(C)c1-c1cc(C)c2nc(Nc3ccc(C(=O)NN4CCN(C)CC4)cc3)nnc2c1 | Proto-oncogene tyrosine-protein kinase Src (Homo sapiens, UniProt P12931) | IC50 | = | 15 |
| c1ccc2nc(Nc3ccc(OCCN4CCCC4)cc3)nnc2c1 | Proto-oncogene tyrosine-protein kinase Src (Homo sapiens, UniProt P12931) | IC50 | > | 10000 |
| Cc1cccc(C)c1-c1cc(N)c2nc(Nc3ccc(OCCN4CCCC4)cc3)nnc2c1 | Proto-oncogene tyrosine-protein kinase Src (Homo sapiens, UniProt P12931) | IC50 | = | 10 |

====

Below is a list of entries, each paired with its recorded AUC value.
Tested on: Canis familiaris
Test: AUC in dog at 25 mg/kg, po
Format: ADME, organism-based, Canis lupus familiaris, Plasma
Design: dose 25 mg/kg, route oral
Details: in vivo

| given_smiles | AUC |
| --- | --- |
| Cc1cc(-c2c(Cl)cccc2Cl)cc2nnc(Nc3ccc(OCCN4CCCC4)cc3)nc12 | 8.68 µg·h/mL |
| Cc1cccc(C)c1-c1cc(C)c2nc(Nc3ccc(OCCN4CCCC4)cc3)nnc2c1 | 9.68 µg·h/mL |

====

Sequence of the target: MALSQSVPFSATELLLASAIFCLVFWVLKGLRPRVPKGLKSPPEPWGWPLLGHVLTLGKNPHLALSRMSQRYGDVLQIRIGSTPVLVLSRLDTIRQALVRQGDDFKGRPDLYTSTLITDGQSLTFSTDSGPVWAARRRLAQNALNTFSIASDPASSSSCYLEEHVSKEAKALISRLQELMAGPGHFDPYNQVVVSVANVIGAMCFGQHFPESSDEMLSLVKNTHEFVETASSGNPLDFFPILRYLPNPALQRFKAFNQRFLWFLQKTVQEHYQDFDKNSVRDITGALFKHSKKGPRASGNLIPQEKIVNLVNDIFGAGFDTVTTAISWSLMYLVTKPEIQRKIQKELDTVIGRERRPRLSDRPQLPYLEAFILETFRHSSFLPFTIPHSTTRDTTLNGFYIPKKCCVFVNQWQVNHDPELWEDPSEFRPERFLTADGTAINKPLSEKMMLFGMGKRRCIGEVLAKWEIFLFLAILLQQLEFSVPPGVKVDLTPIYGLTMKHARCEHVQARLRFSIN
pIC50: −log10 of the molar value.

| given_smiles | pIC50 |
| --- | --- |
| Cc1cccc(C)c1-c1cc(C)c2nc(Nc3ccc(OCCN4CCCC4)cc3)nnc2c1 | < 4.00 |
